Please respond with reported melting point for every item in the list.
Write the answer as a number in °C, unit excluded.

Param item = NC1CONC1=O (stereo not drawn) ; retrieve measured melting point. 147

Moving on to the next molecule: NC(=S)N1CCCCC1 [piperidine-1-thiocarboxamide] 128

Moving on to the next molecule: O=[N+]([O-])c1ccccc1O 46

###

Each entry belongs to exactly one class, chosen by where its melting point falls: class A = under 50 °C, class B = from 50 °C up to 100 °C, class C = 100 °C and over

Could you tell me which band CCOC(=O)C12C(c3ccccc3O[P+]1([O-])OCC)C1(C(=O)OCC)C2c2ccccc2O[P+]1([O-])OCC (centres undefined) belongs to? class C

Moving on to the next molecule: Cc1ccccc1C(=O)O [2-Methylbenzoic acid] class C

Moving on to the next molecule: CC12CCC(=O)CC1CCC1C2CCC2(C)C(=O)CCC12O (centres undefined) [14-hydroxyandrostane-3,17-dione] class C

Moving on to the next molecule: CC(C)(C)OC(=O)N[C@H](CO)C(=O)O class B

Moving on to the next molecule: NC(=O)c1cccc2ccccc12 [naphthalene-1-carboxamide] class C

Moving on to the next molecule: C[C@]12CCC(=O)C=C1CC[C@@H]1[C@@H]2[C@@H](O)C[C@]2(C=O)[C@@H](C(=O)CO)CC[C@@H]12 class C

Moving on to the next molecule: O=C(O)CCCCCCCCCCC(=O)O class C

Moving on to the next molecule: O=[N+]([O-])c1ccc2[nH]ccc2c1 class C

Moving on to the next molecule: COC1=C(OC)/C(=C/C2CCC=CC23OC(=O)C(OC)=C3OC)OC1=O (centres undefined) class C

Moving on to the next molecule: C/C=C\c1ccccc1 [cis-1-phenyl-1-propene] class A

Moving on to the next molecule: ClC(Cl)C(Cl)Cl class A

Moving on to the next molecule: O=CCCc1ccccc1 class A

Moving on to the next molecule: CCCCI [1-Iodobutane] class A

Moving on to the next molecule: CC(C)(C)S class A

Moving on to the next molecule: Clc1ccccc1 class A

Moving on to the next molecule: O=C1CCC(c2ccccc2)c2ccccc21 (centres undefined) [1(2H)-Naphthalenone, 3,4-dihydro-4-phenyl-] class B

Moving on to the next molecule: CCCCCO [Pentan-1-ol] class A

Moving on to the next molecule: Cc1ccc(C)n1-c1ccc(C(F)(F)F)cc1 class B

Moving on to the next molecule: OB(O)c1cc(F)ccc1OCc1ccccc1 class C

Moving on to the next molecule: OC(CCN1CCCCC1)(c1ccccc1)C1CCCCC1 (centres undefined) class C

Moving on to the next molecule: Oc1cccc(Nc2ccccc2)c1 class B

Moving on to the next molecule: CC12CCC3C(CCC4CC(CC(=O)O)=CCC43C)C1CCC2=O (centres undefined) class C

###

Please respond with reported melting point for every item in the list.
Write the answer as a number in °C, unit excluded.

Param item = CCCCC(CC)COC(=O)CCCCC(=O)OCC(CC)CCCC (stereo not given) [bis(2-ethylhexyl) adipate] ; retrieve measured melting point. -67

Moving on to the next compound: Clc1cccc2ccccc12 [1-chloronaphthalene] -20

Moving on to the next compound: c1ccc(NNc2ccccc2)cc1 [1,2-Diphenylhydrazine] 125

Moving on to the next compound: CCCC=NO [butyraldoxime] -29

Moving on to the next compound: C[C@]12CC[C@H](O)CC1=CC[C@@H]1[C@@H]2CC[C@]2(C)C(=O)CC[C@@H]12 [prasterone] 140
